Test: Volume of distribution at steady state in Sprague-Dawley rat at 1 mg/kg, iv
Assay type: ADME, organism-based
Parameters: dose 1 mg/kg, route intravenous
Settings: in vivo, read-out: Vdss
Kindly state Vd for each of the entries shown.
Please provide the amount together with its unit, number first.

Memo: O=C(c1nc2c(C(F)(F)F)cc(C3CC3)cn2c1Cl)N1CCN([C@H]2CC[C@H](O)CC2)C(=O)C1 , reported Vd: 4.1 L/kg

Form: compound = O=C(c1nc2c(C(F)(F)F)cc(-c3ccoc3)cn2c1Cl)N1CCC(N2C(=O)COC2=O)CC1 ; Vd = 3.1 L/kg

// Vd value for O=C(c1nc2c(C(F)(F)F)cc(-c3ccoc3)cn2c1Cl)N1CCC(N2CCOC2=O)CC1 : 2.5 L/kg

====

Please provide measured EC50 for the entries that follow.
Test system: Hepatitis C virus
Assay: Antiviral activity against wild type HCV genotype 1a infected in human HuH7 cells after 48 hrs by luciferase reporter gene assay
Format: functional, organism-based, Hepacivirus hominis
Conditions: subtype 1a, Huh-7, 48 h
Your answer is read as nM, so omit the unit and give the number.

Entry under test: O=C(c1nc2c(C(F)(F)F)cc(-c3ccoc3)cn2c1Cl)N1CCN(C2CCCCC2)C(=O)C1 . Its EC50 was 11

Documented EC50 of O=C(c1nc2c(C(F)(F)F)cc(-c3ccoc3)cn2c1Cl)N1CCN(c2ccccc2)CC1 : 450

EC50 reported for this compound CC1(C)COC(=O)N1C1CCN(C(=O)c2nc3c(C(F)(F)F)cc(-c4ccoc4)cn3c2Cl)CC1 : 33000

According to the records, this compound O=C(c1nc2c(C(F)(F)F)cc(-c3ccoc3)cn2c1Cl)N1CCC(c2ccccc2F)C1 (racemic) displays EC50 of 680

Item: O=C(c1nc2c(C(F)(F)F)cc(-c3ccoc3)cn2c1Cl)N1CCC(c2cccs2)C1 (racemic) | EC50: 770

Form field EC50, entry O=C(c1nc2c(C(F)(F)F)cc(-c3ccoc3)cn2c1Cl)N1CCC(N2CCOC2=O)CC1 : 7.4

# compound O=C(c1nc2c(C(F)(F)F)cc(-c3ccoc3)cn2c1Cl)N1CCC(c2cccs2)CC1 ; its EC50 = 220

====

Test system: Hepatitis C virus
Experiment: Antiviral activity against wild type HCV genotype 1b infected in human HuH7 cells after 48 hrs by luciferase reporter gene assay
Type: functional, organism-based, Hepacivirus hominis
Conditions: Huh-7, 48 h
pEC50: −log10 of the molar value.
Use Yes when the recorded pEC50 is no lower than 7; use No when it is lower.

Q) Is it the case that O=C(c1nc2c(C(F)(F)F)cc(-c3ccoc3)cn2c1Cl)N1CCN(c2ccccc2)CC1 has pEC50 reaching or exceeding 7?
A) No

Q) Could you tell me if the measured pEC50 of O=C(c1nc2c(C(F)(F)F)cc(-c3ccoc3)cn2c1Cl)N1CCC(N2CCCC2)CC1 reaches 7 or more?
A) No

Q) Would you say O=C(c1nc2c(C(F)(F)F)cc(-c3ccoc3)cn2c1Cl)N1CCN([C@H]2CC[C@@H](O)CC2)C(=O)C1 shows pEC50 at minimum 7?
A) No

Q) Could you verify whether the entry O=C(c1nc2c(C(F)(F)F)cc(C3CC3)cn2c1Cl)N1CCN([C@H]2CC[C@H](O)CC2)C(=O)C1 shows pEC50 of no less than 7?
A) Yes

Q) Please check the record O=C(NCc1cccs1)c1cc2nc(-c3ccco3)cc(C(F)(F)Cl)n2n1 and state if its pEC50 is at or above 7.
A) No

Q) Could you tell me if the measured pEC50 of O=C(c1nc2c(C(F)(F)F)cc(-c3ccoc3)cn2c1Cl)N1CCC(N2CCOC2=O)CC1 reaches 7 or more?
A) Yes

Q) Record O=C(c1nc2c(C(F)(F)F)cc(-c3cn[nH]c3)cn2c1Br)N1CCC(c2cccs2)C1 (stereo not given) ; criterion: pEC50 no lower than 7. Met?
A) Yes

Q) # bool: pEC50 of CN1CCN(C(=O)c2nc3c(C(F)(F)F)cc(-c4ccoc4)cn3c2Cl)CC1=O >= 7
A) No

Q) Please tell me: is the molecule O=C(c1nc2c(C(F)(F)F)cc(-c3ccoc3)cn2c1Cl)N1CCN(C2CCCCC2)C(=O)C1 at or over 7 in terms of pEC50?
A) Yes

Q) Answer whether pEC50 of O=C(c1nc2c(C(F)(F)F)cc(-c3ccoc3)cn2c1Cl)N1CCC(c2ccncc2)C1 (racemic) is greater than or equal to 7.
A) No

Q) State whether the measured pEC50 reaches 7, counting equality as reaching it, for O=C(c1nc2c(C(F)(F)F)cc(-c3ccoc3)cn2c1Cl)N1CCN([C@H]2CC[C@H](O)CC2)C(=O)C1
A) Yes

Q) Confirm if pEC50 reported for the molecule CC1(C)COC(=O)N1C1CCN(C(=O)c2nc3c(C(F)(F)F)cc(-c4ccoc4)cn3c2Cl)CC1 is 7 or above.
A) No

Q) Determine whether this molecule has pEC50 no lower than 7: CC(C)c1cc(C(F)(F)F)c2nc(C(=O)N3CCC(N4CCOC4=O)CC3)c(Cl)n2c1
A) Yes

Q) Answer whether pEC50 of CC1(C)CN(C2CCN(C(=O)c3nc4c(C(F)(F)F)cc(-c5ccoc5)cn4c3Cl)CC2)C(=O)O1 is greater than or equal to 7.
A) No

Q) In plain terms: is recorded pEC50 at least 7 for O=C(c1nc2c(C(F)(F)F)cc(-c3ccoc3)cn2c1Cl)N1CCC(N2C(=O)COC2=O)CC1 ?
A) Yes

====

System: Hepatitis C virus
Assay: Antiviral activity against wild type HCV genotype 1b infected in human HuH7 cells after 48 hrs by luciferase reporter gene assay
Assay type: functional, organism-based, Hepacivirus hominis
Conditions: Huh-7, 48 h
Threshold check on EC50: strictly below 90 nM is 1; on or above 90 nM is 0.

Q) For O=C(c1nc2c(C(F)(F)F)cc(-c3ccoc3)cn2c1Cl)N1CCN(c2ccccc2)C(=O)C1 , is the recorded EC50 below the cut-off of 90 nM?
A) 0

Q) Lab note: confirm whether the reported EC50 for this molecule is below 90 nM, equality not counting. molecule: O=C(c1nc2c(C(F)(F)F)cc(-c3ccoc3)cn2c1Cl)N1CCC(c2cccs2)CC1
A) 0

Q) Dear reviewer, please state whether O=C(c1nc2c(C(F)(F)F)cc(-c3ccoc3)cn2c1Cl)N1CCC(c2cccs2)C1 (racemic) has EC50 strictly beneath 90 nM.
A) 1

Q) Given the entry O=C(c1nc2c(C(F)(F)F)cc(-c3ccoc3)cn2c1Cl)N1CCC(c2ccccc2F)C1 (racemic) , would its reported EC50 be below 90 nM?
A) 1
